SUBJECT OF TEST: DGKα (Homo sapiens (Human), UniProt P23743)
Sequence (P23743 whole entry): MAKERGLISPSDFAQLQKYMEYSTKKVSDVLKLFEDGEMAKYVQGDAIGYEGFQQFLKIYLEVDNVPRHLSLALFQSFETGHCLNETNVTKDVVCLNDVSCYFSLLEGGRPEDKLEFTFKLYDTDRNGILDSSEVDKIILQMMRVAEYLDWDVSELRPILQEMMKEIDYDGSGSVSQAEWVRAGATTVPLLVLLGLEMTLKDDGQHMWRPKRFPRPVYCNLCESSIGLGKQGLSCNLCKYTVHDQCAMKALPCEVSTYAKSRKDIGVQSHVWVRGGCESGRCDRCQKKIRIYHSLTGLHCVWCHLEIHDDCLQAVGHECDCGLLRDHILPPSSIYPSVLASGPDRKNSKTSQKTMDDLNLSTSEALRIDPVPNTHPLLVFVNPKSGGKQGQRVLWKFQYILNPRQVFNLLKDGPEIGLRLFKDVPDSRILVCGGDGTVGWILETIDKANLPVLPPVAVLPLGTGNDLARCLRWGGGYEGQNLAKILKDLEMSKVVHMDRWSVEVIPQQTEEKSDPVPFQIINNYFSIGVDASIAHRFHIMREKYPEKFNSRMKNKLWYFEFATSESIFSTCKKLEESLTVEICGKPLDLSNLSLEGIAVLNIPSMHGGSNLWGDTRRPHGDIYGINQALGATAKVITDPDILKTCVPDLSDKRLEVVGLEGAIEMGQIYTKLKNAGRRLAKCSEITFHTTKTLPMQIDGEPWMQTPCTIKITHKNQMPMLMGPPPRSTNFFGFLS
PROTOCOL NOTES: Assay 1: In Vitro DGK Inhibition Assays, Method A (DGKα LIPGLO, extruded liposome)
Assay type: biochemical
CONDITION DETAILS: extruded liposome substrate, 150 μM ATP
Procedure: Assay 1: In Vitro DGK Inhibition Assays—Method A The DGKα and DGKζ reactions were performed using either extruded liposome (DGKα and DGKζ LIPGLO assays) or detergent/lipid micelle substrate (DGKα and DGKζ assays). The reactions were carried out in 50 mM MOPS pH 7.5, 100 mM NaCl, 10 mM MgCl2, 1 μM CaCl2), and 1 mM DTT (assay buffer). The reactions using a detergent/lipid micelle substrate also contained 50 mM octyl B-D-glucopyranoside. […]
MEASURED QUANTITY: IC50 (nM)

# COMPOUND, MEASUREMENT UNIT, QUANTITATIVE READOUT
rows = [
    ("C#CCCC1(CCCOC(=O)C(c2ccc(F)cc2)N2C[C@H](C)N(c3cc(=O)n(C)c4ccc(C#N)nc34)C[C@H]2C)N=N1 (stereo partly drawn)", "nM", 70),
]

1: C[C@@H]1CN(c2cc(=O)n(C)c3ccc(C#N)nc23)[C@@H](C)CN1C(C(=O)OCCC1(C)N=N1)c1ccc(F)cc1 (stereo partly drawn)
2: C[C@@H]1CN(c2cc(=O)n(C)c3ccc(C#N)nc23)[C@@H](C)CN1C(C(=O)OCCOCCOCCNC(=O)c1ccc2c(c1)C(=O)OC21c2ccc(O)cc2Oc2cc(O)ccc21)c1ccc(F)cc1 (stereo partly drawn)
Min IC50? 1 | 2 Pick one; state its label.
1
(1: 80 nM, 2: 160 nM)
